Biological target: T1, human TMEM106B (human, UniProt Q9NUM4 2-274)
T1 construct: Full-length cDNA transiently transfected into HEK293 cells; also called huTMEM106B
Assay: flow cytometry, HEK293 cells transiently transfected with human TMEM106B
Endpoint label: fold-change in binding over parental HEK293 cells (fold)
Quick reminder: number only, in fold, skip the unit.

Recorded fold-change in binding over parental HEK293 cells (binder TM-76 (antibody, V domains shown, Purified from mouse hybridoma) VH: QVTLKESGPGILQPSQTLSLTCSFSGFSLSTSGMGVSWIRKPSGKGLEWLAHIFWDDDKRYNLFLKSRLTVSKDTSSNQVFLMITSVDTTDTATYYCARMGRQRDYFDYWGQGTSLTVSS VL: QIILTQSPAIMSASLGEEITLTCSASLSISYVHWYQQKSGASPKLLIYGTSNLASGVPSRFSGSGSGTFYSLTISSVEAEDAADYYCHQWSIYRTFGGGTKLEMK ): 6.52
